# PROCEDURE_TEXT: PK profiles after IV and PO administration to BALB/c mice
# Assay type: in vivo
# CONDITION_INFO: BALB/c, mouse, blood, iv, 5 mg/kg, IV administration of 5 mg/kg (mpk); read-out: AUC∞
# Excerpt: The pharmacokinetics and oral bioavailability of Compound 42 were investigated in mice following single intravenous (IV) injection and oral administration (PO).
QUANTITY: AUC(0-inf) (ng·h/mL)

[
  {
    "MOLECULAR_STRING": "CC(=O)c1ccc(-c2cc(C(=O)c3ccc(C(F)(F)F)cc3)n3ccccc23)cc1",
    "QUANTITY": "AUC(0-inf)",
    "UNIT_ABBREV": "ng·h/mL",
    "READOUT_NUMBER": 3700
  }
]

----------
# PROCEDURE_TEXT: PK profiles after IV and PO administration to BALB/c mice
# Type: in vivo
# CONDITION_INFO: BALB/c, mouse, blood, po, 20 mg/kg, PO 20 mg/kg, 0.25 h, individual animals 201-203; read-out: concentration in blood

[
  {
    "MOLECULE": "CC(=O)c1ccc(-c2cc(C(=O)c3ccc(C(F)(F)F)cc3)n3ccccc23)cc1 [Compound 42]",
    "concentration at 0.25 h / ng/mL": 75.3
  }
]

----------
# PROCEDURE_TEXT: PK profiles after IV and PO administration to BALB/c mice
# Assay type: in vivo
# CONDITION_INFO: BALB/c, mouse, blood; IV 5.0 mg/kg, mean n=3

[
  {
    "MOLECULAR_STRING": "CC(=O)c1ccc(-c2cc(C(=O)c3ccc(C(F)(F)F)cc3)n3ccccc23)cc1",
    "Tmax, min": 4.98
  }
]

----------
# PROCEDURE_TEXT: PK profiles after IV and PO administration to BALB/c mice
# Format: in vivo
# CONDITION_INFO: BALB/c, mouse, blood, iv, 5 mg/kg, IV 5.0 mg/kg, individual animals; read-out: HL_Lambda_z T1/2 (converted)

[
  {
    "COMPOUND": "CC(=O)c1ccc(-c2cc(C(=O)c3ccc(C(F)(F)F)cc3)n3ccccc23)cc1 [Compound 42]",
    "half-life, h": 6.03
  }
]

----------
# PROCEDURE_TEXT: PK profiles after IV and PO administration to BALB/c mice
# Assay type: in vivo
# CONDITION_INFO: BALB/c, mouse, blood, po, 20 mg/kg, PO 20 mg/kg, 24.00 h, individual animals 201-203; read-out: concentration in blood
QUANTITY: concentration at 24 h (ng/mL)

[
  {
    "MOLECULAR_STRING": "CC(=O)c1ccc(-c2cc(C(=O)c3ccc(C(F)(F)F)cc3)n3ccccc23)cc1",
    "UNIT_ABBREV": "ng/mL",
    "READOUT_NUMBER": 39
  }
]

----------
# PROCEDURE_TEXT: PK profiles after IV and PO administration to BALB/c mice
# Format: in vivo
# CONDITION_INFO: BALB/c, mouse, blood, iv, 5 mg/kg, IV 5.0 mg/kg, mean n=3; read-out: MRTINF_obs MRT(0-∞)
QUANTITY: MRT inf

[
  {
    "MOLECULAR_STRING": "CC(=O)c1ccc(-c2cc(C(=O)c3ccc(C(F)(F)F)cc3)n3ccccc23)cc1",
    "RESULT": "7.6 h"
  }
]

----------
# PROCEDURE_TEXT: PK profiles after IV and PO administration to BALB/c mice
# Format: in vivo
# CONDITION_INFO: BALB/c, mouse, blood, po, 20 mg/kg, PO 20 mg/kg, 24.00 h, mean; read-out: concentration in blood, Mean PO

[
  {
    "COMPOUND": "CC(=O)c1ccc(-c2cc(C(=O)c3ccc(C(F)(F)F)cc3)n3ccccc23)cc1 [Compound 42]",
    "UNIT_ABBREV": "ng/mL",
    "concentration at 24 h": 42.4
  }
]

----------
# PROCEDURE_TEXT: PK profiles after IV and PO administration to BALB/c mice
# Format: in vivo
# CONDITION_INFO: BALB/c, mouse, blood, iv, 5 mg/kg, IV 5 mg/kg, 0.50 h, individual animals 101-103; read-out: concentration in blood

[
  {
    "COMPOUND": "CC(=O)c1ccc(-c2cc(C(=O)c3ccc(C(F)(F)F)cc3)n3ccccc23)cc1 [Compound 42]",
    "UNIT_ABBREV": "ng/mL",
    "concentration at 0.5 h": 803
  }
]

----------
# PROCEDURE_TEXT: PK profiles after IV and PO administration to BALB/c mice
# Type: in vivo
# CONDITION_INFO: BALB/c, mouse, blood, iv, 5 mg/kg, IV 5.0 mg/kg, individual animals; read-out: C0

[
  {
    "MOLECULAR_STRING": "CC(=O)c1ccc(-c2cc(C(=O)c3ccc(C(F)(F)F)cc3)n3ccccc23)cc1",
    "C0 / ng/mL": 3380
  }
]

----------
# PROCEDURE_TEXT: PK profiles after IV and PO administration to BALB/c mice
# Type: in vivo
# CONDITION_INFO: BALB/c, mouse, blood, po, 20 mg/kg, PO 20 mg/kg, 6.00 h, individual animals 201-203; read-out: concentration in blood

[
  {
    "MOLECULAR_STRING": "CC(=O)c1ccc(-c2cc(C(=O)c3ccc(C(F)(F)F)cc3)n3ccccc23)cc1",
    "UNIT_ABBREV": "ng/mL",
    "concentration at 6 h": 98.7
  }
]

----------
# PROCEDURE_TEXT: PK profiles after IV and PO administration to BALB/c mice
# Assay type: in vivo
# CONDITION_INFO: BALB/c, mouse, blood, po, 20 mg/kg, PO administration of 20 mpk; read-out: half-life (converted)
# Excerpt: The pharmacokinetics and oral bioavailability of Compound 42 were investigated in mice following single intravenous (IV) injection and oral administration (PO).
QUANTITY: half-life (h)

[
  {
    "COMPOUND": "CC(=O)c1ccc(-c2cc(C(=O)c3ccc(C(F)(F)F)cc3)n3ccccc23)cc1 [Compound 42]",
    "QUANTITY": "half-life",
    "READOUT_NUMBER": 11.6
  }
]

----------
# PROCEDURE_TEXT: PK profiles after IV and PO administration to BALB/c mice
# Type: in vivo
# CONDITION_INFO: BALB/c, mouse, blood, po, 20 mg/kg, PO administration of 20 mpk; read-out: Cmax

[
  {
    "COMPOUND": "CC(=O)c1ccc(-c2cc(C(=O)c3ccc(C(F)(F)F)cc3)n3ccccc23)cc1 [Compound 42]",
    "UNIT_ABBREV": "ng/mL",
    "Cmax": 224
  }
]

----------
# PROCEDURE_TEXT: PK profiles after IV and PO administration to BALB/c mice
# Assay type: in vivo
# CONDITION_INFO: BALB/c, mouse, blood, iv, 5 mg/kg, IV 5.0 mg/kg, mean n=3; read-out: AUClast AUC(0-t)

[
  {
    "MOLECULAR_STRING": "CC(=O)c1ccc(-c2cc(C(=O)c3ccc(C(F)(F)F)cc3)n3ccccc23)cc1",
    "AUC(0-t)": "3300 ng·h/mL"
  }
]

----------
# PROCEDURE_TEXT: PK profiles after IV and PO administration to BALB/c mice
# Assay type: in vivo
# CONDITION_INFO: BALB/c, mouse, blood, iv, 5 mg/kg, IV administration of 5 mg/kg (mpk); read-out: half-life (converted)

[
  {
    "MOLECULAR_STRING": "CC(=O)c1ccc(-c2cc(C(=O)c3ccc(C(F)(F)F)cc3)n3ccccc23)cc1",
    "half-life": "~7.76 h"
  }
]

----------
# PROCEDURE_TEXT: PK profiles after IV and PO administration to BALB/c mice
# Assay type: in vivo
# CONDITION_INFO: BALB/c, mouse, blood, po, 20 mg/kg, PO 20 mg/kg, 6.00 h, mean; read-out: concentration in blood, Mean PO
QUANTITY: concentration at 6 h (ng/mL)

[
  {
    "MOLECULAR_STRING": "CC(=O)c1ccc(-c2cc(C(=O)c3ccc(C(F)(F)F)cc3)n3ccccc23)cc1",
    "UNIT_ABBREV": "ng/mL",
    "READOUT_NUMBER": 111
  }
]

----------
# PROCEDURE_TEXT: PK profiles after IV and PO administration to BALB/c mice
# Assay type: in vivo
# CONDITION_INFO: BALB/c, mouse, blood, iv, 5 mg/kg, IV 5.0 mg/kg, individual animals; read-out: Cmax

[
  {
    "COMPOUND": "CC(=O)c1ccc(-c2cc(C(=O)c3ccc(C(F)(F)F)cc3)n3ccccc23)cc1 [Compound 42]",
    "Cmax": "2590 ng/mL"
  }
]
